Sourced from patent US10494355B2

Molecular target: human recombinant HDAC6 (Homo sapiens, UniProt Q9UBN7)
Sequence (Q9UBN7 1-1215): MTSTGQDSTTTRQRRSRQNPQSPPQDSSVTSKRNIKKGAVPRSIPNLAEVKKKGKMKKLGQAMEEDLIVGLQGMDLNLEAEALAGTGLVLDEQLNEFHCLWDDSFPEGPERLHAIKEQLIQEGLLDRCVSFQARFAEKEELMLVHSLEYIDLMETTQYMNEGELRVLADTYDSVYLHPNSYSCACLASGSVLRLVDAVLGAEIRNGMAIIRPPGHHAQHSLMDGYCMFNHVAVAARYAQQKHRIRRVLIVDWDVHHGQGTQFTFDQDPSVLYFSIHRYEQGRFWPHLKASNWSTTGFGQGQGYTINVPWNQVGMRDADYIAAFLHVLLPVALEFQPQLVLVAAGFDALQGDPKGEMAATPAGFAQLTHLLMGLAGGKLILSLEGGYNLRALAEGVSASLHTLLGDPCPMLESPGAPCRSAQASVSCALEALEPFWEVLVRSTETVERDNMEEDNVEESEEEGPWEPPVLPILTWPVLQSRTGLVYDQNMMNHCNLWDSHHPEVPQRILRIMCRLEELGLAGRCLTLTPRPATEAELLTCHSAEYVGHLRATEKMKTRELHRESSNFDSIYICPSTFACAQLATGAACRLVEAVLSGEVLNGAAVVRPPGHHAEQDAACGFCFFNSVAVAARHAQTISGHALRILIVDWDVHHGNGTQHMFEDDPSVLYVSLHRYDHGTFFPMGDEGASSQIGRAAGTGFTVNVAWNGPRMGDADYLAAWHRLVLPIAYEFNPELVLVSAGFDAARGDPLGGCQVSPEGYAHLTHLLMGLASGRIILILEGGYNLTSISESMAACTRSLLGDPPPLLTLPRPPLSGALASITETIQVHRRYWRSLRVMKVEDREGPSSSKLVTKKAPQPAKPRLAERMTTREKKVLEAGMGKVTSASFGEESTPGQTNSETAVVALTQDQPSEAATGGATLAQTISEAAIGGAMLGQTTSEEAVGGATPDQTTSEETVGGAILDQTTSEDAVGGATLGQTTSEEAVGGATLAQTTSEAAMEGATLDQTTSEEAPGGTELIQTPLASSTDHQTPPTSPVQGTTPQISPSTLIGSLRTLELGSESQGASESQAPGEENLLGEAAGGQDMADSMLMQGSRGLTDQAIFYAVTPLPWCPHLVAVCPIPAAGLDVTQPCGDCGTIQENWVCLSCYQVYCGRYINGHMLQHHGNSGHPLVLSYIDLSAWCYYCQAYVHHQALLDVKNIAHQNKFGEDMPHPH
Experiment: HDAC6 enzyme activity inhibition assay (HDAC Fluorimetric Drug Discovery Kit)
Details: 30° C. 60 minutes
OBSERVABLE: IC50 (nM)

[[record]]
smiles_structure = "Fc1cccc(C2(Nc3ncc(-c4nnc(C(F)(F)F)o4)cn3)CC2)c1"
observable = "IC50"
measured_value = 138


P = FC(F)c1nnc(-c2cnc(NC3(c4ccccn4)CCC3)nc2)o1
Q = Fc1ccc(C2(Nc3ncc(-c4nnc(C(F)F)o4)cn3)CCC2)c(Cl)c1
R = FC(F)(F)c1ccc(C2(Nc3ncc(-c4nnc(C(F)(F)F)o4)cn3)CCC2)cc1
S = FC(F)c1nnc(-c2cnc(NC3(c4ccccc4)CC3)nc2)o1
Exercise: Please order the records by their reported IC50, lowest number first. // format: requested-order list of labels
Key: P, S, Q, R
(P: 28 nM, S: 48 nM, Q: 163 nM, R: 1740 nM)
